The entries below are paired with their reported protein stability index.
method_description: protein stability index of a GFP-peptide fusion (GPS, HEK-293T) (PSI 1-6); higher = more stable;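 further: 24-mer peptide tiles fused after GFP, lentivirally expressed, FACS-sorted into six equal bins by GFP/DsRed ratio, decoded by Illumina sequencing, PSI is the read-weighted mean bin number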
experimental_setup: treatment: DMSO; c terminus: a fixed tail appended
Respond using a number only.

Please report the measured protein stability index for NDLDRIAQPNYIPTQQDVLRTRVK [GNAI1]
4.81

Please report the measured protein stability index for NPFQDPAVIQHRPSRQYATLDVYN [SCAMP3]
3.6

Please report the measured protein stability index for LLSDVRFVLGKGRGAAAAGGPQRI [BTBD1]
2.85

Please report the measured protein stability index for FYFENALSKSNKPIHTIILNPHVH [CAMK2D]
2.01

Please report the measured protein stability index for FLLVLAVVAGDTVSTGSTDNSPTS [ADAMTSL2]
2.5

Please report the measured protein stability index for MEIFMEEMREIRRKLRELQLRNCL [BEX3]
3.28

Please report the measured protein stability index for EHVSRALCIHTGRELRCKVFPIKH [TRIB1]
2.21

Please report the measured protein stability index for LDFSKKILHTAWHPSENIIAVAAT [PPP2R2B]
2.05

Next:
Please report the measured protein stability index for QPRKGGADWLGLKDEDLDLFPASP [FBF1]
4.71

Please report the measured protein stability index for LAELQEQLKAVHEQLAALSQAPVN [BRD3]
4.2
